Target protein (sequence): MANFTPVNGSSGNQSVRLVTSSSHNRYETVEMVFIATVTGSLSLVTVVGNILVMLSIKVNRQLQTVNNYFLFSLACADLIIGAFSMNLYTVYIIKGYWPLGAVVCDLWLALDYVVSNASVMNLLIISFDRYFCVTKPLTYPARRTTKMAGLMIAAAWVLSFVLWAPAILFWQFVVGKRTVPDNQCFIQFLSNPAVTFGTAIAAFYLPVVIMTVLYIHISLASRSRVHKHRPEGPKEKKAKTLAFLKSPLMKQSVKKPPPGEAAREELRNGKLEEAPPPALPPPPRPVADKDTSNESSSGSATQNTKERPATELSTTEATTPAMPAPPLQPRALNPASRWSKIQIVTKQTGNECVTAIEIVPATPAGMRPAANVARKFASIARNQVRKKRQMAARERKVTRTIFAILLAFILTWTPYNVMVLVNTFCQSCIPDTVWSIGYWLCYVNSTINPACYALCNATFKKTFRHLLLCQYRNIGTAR
result.type: Ki (nM)

Worked examples follow.
INSERT INTO results (compound, recorded_result) VALUES
  ('COc1ccc([S@+]([O-])c2ccc(C(=O)C3CCN(C4CCCCC4)CC3)cc2)cc1', 15.2),
  ('COc1ccc([S@+]([O-])c2ccc(C(C#N)N3CCN(C4CCCCC4)CC3)cc2)cc1 (stereo partly drawn)', 18.4),
  ('COc1ccc([S@@+]([O-])c2ccc(C(C#N)C3CCN(C4CCCCC4)CC3)cc2)cc1 (stereo partly drawn)', 12.7),
  ('COc1ccc(S(=O)(=O)c2ccc(C(C#N)N3CCN(C4CCCCC4)CC3)cc2)cc1 (stereo not drawn)', 18.6);

1 = COc1ccc([S@@+]([O-])c2ccc(C(=O)C3CCN(C4CCCCC4)CC3)cc2)cc1
2 = C=C(c1ccc([S@+]([O-])c2ccc(OC)cc2)cc1)C1CCN(C2CCCCC2)CC1
3 = COc1ccc([S+]([O-])c2ccc(C(C)N3CCN(C4CCCCC4)CC3)cc2)cc1 (stereo not drawn)
4 = COc1ccc([S@+]([O-])c2ccc(C(C#N)C3CCN(C4CCCCC4)CC3)cc2)cc1 (stereo partly drawn)
Order the records, beginning with the lowest Ki and ending with the highest. // format: requested-order list of labels
2, 3, 1, 4

Numbers sourced from ChEMBL document CHEMBL1132745.
